# MEASUREMENT TARGET: T1, MBP-AF9 (MBP carrier left out. The construct limits are not given; the C-terminal ANC1 homology domain (AHD), named as the DOT1L-binding domain, is taken by convention as about 500-568.)
# T1 chain: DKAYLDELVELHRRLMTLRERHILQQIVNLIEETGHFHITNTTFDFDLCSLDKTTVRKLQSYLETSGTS
# ASSAY NOTES: fluorescence polarisation; competitive: serial dilutions of peptide with fixed MBP-AF9 (200 nM) and N-Flu-DOT1L (10 nM); 100 mM NaH2PO4, 150 mM NaCl, 0.1% β-ME, 0.01% Triton X-100; room temperature, 3 h
# EXPERIMENTAL CONDITIONS: both partners purified
OBSERVED PROPERTY: pKi
Answers are plain numbers, as −log10 of the molar value.

// field: pKi; key: LPISIPLSTV (peptide, UniProt Q8TEK3 865-874, looked up, the DOT1L constructs of the cell lines are human; also called 10mer peptide from residues 865–874; 10mer DOT1L peptide; source: synthetic peptide) [DOT1L WT 10mer (865–874) peptide] ; value = 7.70

# credit: paper PMC7914713
